Below, each of the sequences is paired with its reported gcPBM binding intensity (ln) value.
- System: PfAP2-EXP AP2 domain (GST-tagged)
- experimentSummary: gcPBM binding intensity (ln(normalized median fluorescence intensity)); higher = stronger DNA binding
Over roughly 25,000 sequences, “ln(normalized median fluorescence intensity)” has its median near 8.6; the highest 2% begin near 10. The full list was thinned out, with the highest values kept by preference.
Give a plain numeric answer without units written out.

Some solved entries appear below for comparison.
> print(dat)
                              sequenceinput  result
1  ATATATATATATATATGTACATACAATTATATTCTC [XGTACX_site1133]    10.2
2  TTACATATTATACGAAGTACGTACAAATACTTATAT [XGTACX_site8598]     8.6
3  TCATAAAAGATTAAGTGTACATGTGCTACTCTTATA [XGTACX_site6255]    8.34
4  GTAATTTTTTTCTATACACACATATATATAATATAT [CACACA_site2655]    8.74
5  GGTATACACAAGTATACACACATATATATATATATA [CACACA_site9063]    10.2
6  AAAAATTAACAAAAGGTGCAAACAAATAGTGGTTTT [GTGCAC_site9998]    8.87

IN: Hello, please tell me recorded gcPBM binding intensity (ln) for this one: AAAAAAAAAAGACACACACACATATAAATATAAATA [CACACA_site6899]
OUT: 8.75

IN: For the sequence ATATATATATATATATGTACATATTATTCTCATTGT [XGTACX_site6259] , report gcPBM binding intensity (ln).
OUT: 9.88

IN: Please report gcPBM binding intensity (ln) for the following sequence: TCATACGAAATATAAACACACATACAATAAATAAAT [CACACA_site5156]
OUT: 8.78

###

- Tested on: PfAP2-EXP AP2 domain (GST-tagged)
- experimentSummary: gcPBM binding intensity (ln(normalized median fluorescence intensity)); higher = stronger DNA binding
In all, about 25,000 sequences were measured (“ln(normalized median fluorescence intensity)”: median about 8.6, highest 2% from about 10 on). The sample holds the highest values, similar sequences and a random draw of the others, so the mix is not that of the screen.
recordedMetric: gcPBM binding intensity (ln)
Kindly provide the number alone.

Solved entries (count: 8):
> print(dat)
                              sequenceinput                recordedmetric  result
1  TATTAAAATATTTATACACACATAATTTTGATAAAT [CACACA_site4486]  gcPBM binding intensity (ln)    8.19
2  TGTGCACGTTCTGTGACACACATTTAAATGTGCTTA [CACACA_site176]  gcPBM binding intensity (ln)    8.62
3  ATATTCAATATATTATGTACACATATATGAGGATAT [XGTACX_site7019]  gcPBM binding intensity (ln)    8.65
4  TATTTATGTTCATATAAACACACGTAAAATTCAAGG [CACACA_site1538]  gcPBM binding intensity (ln)    8.62
5      ATTTTCATGATAAAGGTGCAATTATTTTTATAAGAA  gcPBM binding intensity (ln)    8.74
6  TTTTTTTTTTTGAGGAGGACACAAAAATATGCTACC [XGTACX_site756]  gcPBM binding intensity (ln)    8.53
7  TGATGAAAATTTTTCTGTACAAAAAGTATGAAGGTA [XGTACX_site8901]  gcPBM binding intensity (ln)    8.88
8  TATTTTCCATGAGGTAGTACACATTAAAAAATCGTT [XGTACX_site6887]  gcPBM binding intensity (ln)    8.44

IN: # return recorded gcPBM binding intensity (ln) for entry TAACATAGCAATGTTTCACACACAAGAAAAAATACA [CACACA_site8747]
OUT: 8.84

IN: Identify measured gcPBM binding intensity (ln) corresponding to TCTGGATTGGATTACAAGAAAATAAAATATAAAATA [CACACA_negctrl_site122]
OUT: 8.38
